Tested on: MIWI (PIWIL1) piRISC loaded with Kctd7 piRNA (30 nt);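 further: 1 nM active piRISC with 0.1 nM target library at 33 °C single turnover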
assay-notes: pre-steady-state target cleavage rate (min^-1); higher = faster piRNA-guided slicing of the target
reported-conditions: guide: Kctd7 piRNA 5'p-UGUUAAUCUCUCAGAGAAGGUGACAGUGAU; auxiliary factor: 500 nM mouse GTSF1
The full ranking holds about 6,600 sequences; the median of “pre-steady-state target cleavage rate” is about 0.07, and the highest 2% start at about 0.72. The sample as a whole holds a higher share of the highest values than the screen did.
reported-property: pre-steady-state target cleavage rate

INSERT INTO results (query_sequence, modifier, endpoint_value) VALUES
  ('UAGCCUGUCACCUUCUCUGAGAGAUUAACA', '=', 0.752),
  ('UAGUGACAGUCCUUACUCUGAGAGAUUAACA', '=', 0.0326),
  ('UUCAUCUGUCACCUUCUCUGAGAGAUUAACA', '=', 0.706),
  ('AUCAUCUGUCACCUUCUCUGAGAGAUUAACA', '=', 0.74),
  ('UAGUGACUCACCUUCUCUGAGUGAUUAACA', '=', 0.0244),
  ('UAGACCUGUCACCUUCUCUGAGAGAUUAACA', '=', 0.652),
  ('UACACUGUCGACCUUCUCUGAGAGAUUAACA', '=', 0.229),
  ('UAGACAGUCACCUUCUCUGAGAGAUUAACA', '=', 0.656),
  ('UAGACUAGUCACCUUCUCUGAGAGAUUAACA', '=', 0.756),
  ('AUGACUGUCACGUUCUCUGAGAGAUUAACA', '=', 0.755),
  ('UAGUGACUCACCAAGUCUGAGAGAUAUUGA', '<', 0.0001),
  ('UAGUCUGUGACCUUCUGUGAGAGAUUAACA', '=', 0.399),
  ('UUCCCUGUCACCUUCUCUGAGAGAUUAACA', '=', 0.502);

---

System: MIWI (PIWIL1) piRISC loaded with Kctd7 piRNA (30 nt);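 further: 1 nM active piRISC with 0.1 nM target library at 33 °C single turnover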
assay-notes: pre-steady-state target cleavage rate (min^-1); higher = faster piRNA-guided slicing of the target
reported-conditions: guide: Kctd7 piRNA 5'p-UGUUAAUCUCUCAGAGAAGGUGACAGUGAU; auxiliary factor: 500 nM mouse GTSF1
In all, about 6,600 sequences were measured (“pre-steady-state target cleavage rate”: median about 0.07, highest 2% from about 0.72 on). Only a selection was taken, and the highest values are over-represented in it overall.
reported-property: pre-steady-state target cleavage rate

INSERT INTO results (query_sequence, study_system, endpoint_value) VALUES
  ('UACACUGUACACCUUCUCUGAGAGAUUAACA', 'MIWI (PIWIL1) piRISC loaded with Kctd7 piRNA (30 nt)', 0.623),
  ('UUCACUGUACCUUCUCUGAGAGAUUAACA', 'MIWI (PIWIL1) piRISC loaded with Kctd7 piRNA (30 nt)', 0.712),
  ('UAGACUGUACCUUCUCUGAGAGAUUAACA', 'MIWI (PIWIL1) piRISC loaded with Kctd7 piRNA (30 nt)', 0.572),
  ('UAGACUGUACACCUUCUCUGAGAGAUUAACA', 'MIWI (PIWIL1) piRISC loaded with Kctd7 piRNA (30 nt)', 0.779);

---

Tested on: MIWI (PIWIL1) piRISC loaded with Kctd7 piRNA (30 nt);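 further: 1 nM active piRISC with 0.1 nM target library at 33 °C single turnover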
assay-notes: pre-steady-state target cleavage rate (min^-1); higher = faster piRNA-guided slicing of the target
reported-conditions: guide: Kctd7 piRNA 5'p-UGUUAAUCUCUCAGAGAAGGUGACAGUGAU; auxiliary factor: 500 nM mouse GTSF1
In all, about 6,600 sequences were measured (“pre-steady-state target cleavage rate”: median about 0.07, highest 2% from about 0.72 on). This is one part of a sample in which the highest values are shown more often than they occur.
reported-property: pre-steady-state target cleavage rate

INSERT INTO results (query_sequence, endpoint_value) VALUES
  ('UAGUGACUCACCUUCUCAGAGAGAUAAACA', 0.027),
  ('UACACUGUUCACCUUCUCUGAGAGAUUAACA', 0.614),
  ('AUCACUGUUACCUUCUCUGAGAGAUUAACA', 0.553),
  ('UAGUCUGUCACCUUUUCUGAGAGAUUAACA', 0.542),
  ('UAGACUGUUCACCUUCUCUGAGAGAUUAACA', 0.771),
  ('UAGUGACAGACCUUCUCUGAGACAUUAACA', 0.039),
  ('UAGACUGUUACCUUCUCUGAGAGAUUAACA', 0.745);

---

System: MIWI (PIWIL1) piRISC loaded with Kctd7 piRNA (30 nt);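 further: 1 nM active piRISC with 0.1 nM target library at 33 °C single turnover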
assay-notes: pre-steady-state target cleavage rate (min^-1); higher = faster piRNA-guided slicing of the target
reported-conditions: guide: Kctd7 piRNA 5'p-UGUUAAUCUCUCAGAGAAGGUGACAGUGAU; auxiliary factor: 500 nM mouse GTSF1
Over roughly 6,600 sequences, “pre-steady-state target cleavage rate” has its median near 0.07; the highest 2% begin near 0.72. Many of the other results were omitted from the sample, so the highest values are more common in it than they were.
Label scheme for pre-steady-state target cleavage rate: lower than 0.5 is Not satisfied, 0.5 and above is Satisfied.

INSERT INTO assay_data (query_sequence, discrete_label) VALUES
  ('UAGUGAGUCACCUUCUGUGAGAGAUUUUGA', 'Not satisfied'),
  ('UAGACUCACACCUUCUCUGAGAGAUAUUGA', 'Not satisfied'),
  ('UACACAGUCACCAUCUCUGAGAGAUUAACA', 'Satisfied'),
  ('UUCACUCAGACCUUCUCUGAGAGAUUAUGA', 'Not satisfied'),
  ('UAGAGCUGUCACCUUCUCUGAGAGAUUAACA', 'Satisfied'),
  ('UAGUGUGUCACCUUCUCUGAGAGAUUAUCA', 'Not satisfied'),
  ('AUCAGUGUCACCUUGUCUGAGAGAUUAACA', 'Not satisfied'),
  ('UAGUGAGUCACCUUGUCUGAGAGUUUAACA', 'Not satisfied'),
  ('UAGUGACACACCUUCUCUGAAAGAUUAACA', 'Not satisfied'),
  ('AUCACAGUCACCAUCUCUGAGAGAUUAACA', 'Satisfied'),
  ('UAGUGACACACGUUGUCUGAGAGAUUAACA', 'Not satisfied'),
  ('UACAGCUGUCACCUUCUCUGAGAGAUUAACA', 'Satisfied'),
  ('UACAGUGUCACCUUCUCUGAGAGAUUAACA', 'Satisfied'),
  ('UAGACUGUCACCUUCUCUGAGAGAUUAAA', 'Not satisfied'),
  ('UAGUGACUCACGUUCUCUGAGAGAUUUUGA', 'Not satisfied'),
  ('UUCACUCUCACCAUCUCUGAGAGAUUAACA', 'Not satisfied'),
  ('UAGUGACAGUGCUUCUCUGAGAGUUUAACA', 'Not satisfied'),
  ('UACAGUGUCACCAUCUCUGAGAGAUUAACA', 'Satisfied'),
  ('UAGACAGUCACCAUCUCUGAGAGAUUAACA', 'Satisfied'),
  ('UACACUCGUCACCUUCUCUGAGAGAUUAACA', 'Satisfied'),
  ('AUCACUCGUCACCUUCUCUGAGAGAUUAACA', 'Satisfied'),
  ('UAGUCUCGUCACCUUCUCUGAGAGAUUAACA', 'Satisfied'),
  ('AUCACUCUCACCUUCUCUGAGAGAUUAACA', 'Satisfied'),
  ('AACACUGUCACCUUCUCUGAGAGAUUAAGA', 'Not satisfied'),
  ('UAGUGACACACCUUCACUGAGAGAAUAACA', 'Not satisfied');

---

System: MIWI (PIWIL1) piRISC loaded with Kctd7 piRNA (30 nt);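 further: 1 nM active piRISC with 0.1 nM target library at 33 °C single turnover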
assay-notes: pre-steady-state target cleavage rate (min^-1); MIWI and MILI are mouse PIWI proteins and EfPiwi is from a freshwater sponge; tags in brackets are library labels; higher = faster piRNA-guided slicing of the target;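 further: 1 nM active piRISC with 0.1 nM target library at 33 °C single turnover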
reported-conditions: guide: Kctd7 piRNA 5'p-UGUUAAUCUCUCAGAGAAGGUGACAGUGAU; auxiliary factor: 500 nM mouse GTSF1
Whole data set: some 6,600 sequences, median “pre-steady-state target cleavage rate” near 0.07, cut for the highest 2% near 0.72. This excerpt belongs to a sample that is enriched for the highest values.
reported-property: pre-steady-state target cleavage rate

INSERT INTO results (query_sequence, reported_property, endpoint_value) VALUES
  ('UAGUGACUCACGUUCUCUGAGAGAUAAACA', 'pre-steady-state target cleavage rate', 0.119),
  ('UACACUGUCACCUCUCUCUGAGAGAUUAACA', 'pre-steady-state target cleavage rate', 0.425),
  ('UAGUCUGUCACCAUCUCUGAGAGAUAAACA', 'pre-steady-state target cleavage rate', 0.246),
  ('AUCAAUGUCACCUUCUCUGAGAGAUUAACA', 'pre-steady-state target cleavage rate', 0.672),
  ('UACACUGUCACCGUUCUCUGAGAGAUUAACA', 'pre-steady-state target cleavage rate', 0.586),
  ('UUCACUGUCACCGUCUCUGAGAGAUUAACA', 'pre-steady-state target cleavage rate', 0.509),
  ('UUCACUGUCACCUCCUCUGAGAGAUUAACA', 'pre-steady-state target cleavage rate', 0.639),
  ('UAGUCUGUCACCGUUCUCUGAGAGAUUAACA', 'pre-steady-state target cleavage rate', 0.651),
  ('AUCACUGUCACCGUUCUCUGAGAGAUUAACA', 'pre-steady-state target cleavage rate', 0.774),
  ('UAGACUGUCACCUGUCUCUGAGAGAUUAACA', 'pre-steady-state target cleavage rate', 0.561),
  ('UUCACUGUCUCGUUCUCUGAGAGAUUAACA', 'pre-steady-state target cleavage rate', 0.631),
  ('UUCACAGUCACCUUCUCUGAGAGAUUAAGA', 'pre-steady-state target cleavage rate', 0.137),
  ('UAGACUGUCACCUCUCUCUGAGAGAUUAACA', 'pre-steady-state target cleavage rate', 0.409);
